Let's look at some compounds and their measured Activity.
- Test system: Amaranthus viridis
- test protocol: Herbicidal activity against Amaranthus viridis assessed as disease control at 1000 ppm treated in foliage during 15 to 20 days relative to control
- Format: functional

Sample answers from the record:
Prompt: Any idea what its Activity is? The compound is COc1ccc2sc(-c3ccncc3)nc2c1
Response: <39%

Prompt: Any idea what its Activity is? The compound is c1ccc2nc(-c3nc4ccccc4o3)ccc2c1
Response: <39%

Prompt: Any idea what its Activity is? The compound is CCOc1ccc2sc(-c3ccncc3)nc2c1
Response: <39%

Prompt: Any idea what its Activity is? The compound is Cc1ccc2nc(-c3ccccn3)[nH]c2c1
Response: 40%

Prompt: Any idea what its Activity is? The compound is Clc1cccc2nc(-c3ccccn3)[nH]c12
Response: <39%

More entries:
Prompt: Any idea what its Activity is? The compound is c1ccc2oc(-c3ccncc3)nc2c1
Response: <39%

Prompt: Any idea what its Activity is? The compound is O=[N+]([O-])c1ccc2[nH]c(-c3ccccn3)nc2c1
Response: <39%

Prompt: Any idea what its Activity is? The compound is c1ccc2oc(-c3nc4ccccc4s3)nc2c1
Response: <39%

Prompt: Any idea what its Activity is? The compound is COc1ccc2sc(-c3ccccn3)nc2c1
Response: 40%

Prompt: Any idea what its Activity is? The compound is O=[N+]([O-])c1cccc2nc(-c3ccccn3)[nH]c12
Response: <39%

Prompt: Any idea what its Activity is? The compound is c1ccc(-c2nc3ccccc3o2)nc1
Response: <39%

Prompt: Any idea what its Activity is? The compound is FC(F)(F)c1ccc2sc(-c3ccccn3)nc2c1
Response: >80%

Prompt: Any idea what its Activity is? The compound is c1ccc(-c2nc3ccccc3[nH]2)nc1
Response: <39%

###

- Tested on: Botrytis cinerea
- test protocol: Antifungal activity against Botryotinia fuckeliana after 7 days
- Type: functional
- Set-up: concentration or dose not given beside the values
property label: Activity

Sample answers from the record:
Prompt: Could you share what Activity was measured for c1ccc2oc(-c3ccncc3)nc2c1 , tested on Botrytis cinerea?
Response: 40%

Prompt: Could you share what Activity was measured for c1ccc2oc(-c3nc4ccccc4s3)nc2c1 , tested on Botrytis cinerea?
Response: <39%

Prompt: Could you share what Activity was measured for COc1ccc2sc(-c3ccccn3)nc2c1 , tested on Botrytis cinerea?
Response: <39%

Prompt: Could you share what Activity was measured for O=[N+]([O-])c1cccc2nc(-c3ccccn3)[nH]c12 , tested on Botrytis cinerea?
Response: <39%

More entries:
Prompt: Could you share what Activity was measured for c1ccc(-c2nc3ccccc3[nH]2)nc1 , tested on Botrytis cinerea?
Response: 60%

Prompt: Could you share what Activity was measured for Clc1ccc2nc(-c3ccccn3)[nH]c2c1 , tested on Botrytis cinerea?
Response: >80%

Prompt: Could you share what Activity was measured for COc1ccc2sc(-c3ccncc3)nc2c1 , tested on Botrytis cinerea?
Response: <39%

Prompt: Could you share what Activity was measured for c1ccc2nc(-c3nc4ccccc4s3)ccc2c1 , tested on Botrytis cinerea?
Response: <39%

Prompt: Could you share what Activity was measured for Clc1cccc2nc(-c3ccccn3)[nH]c12 , tested on Botrytis cinerea?
Response: >80%

Prompt: Could you share what Activity was measured for CCOc1ccc2sc(-c3ccccn3)nc2c1 , tested on Botrytis cinerea?
Response: <39%

Prompt: Could you share what Activity was measured for c1ccc2nc(-c3nc4ccccc4o3)ccc2c1 , tested on Botrytis cinerea?
Response: <39%
